- EXPERIMENTAL TARGET: human calcium-sensing receptor (CaSR) (Homo sapiens, UniProt P41180)
- Construct: expressed in transfected cells; host or cells: HEK 293T cells, transiently transfected (lipofectamine 2000); in some cases HEK293 cells stably transfected
- Sequence (P41180 20-1078): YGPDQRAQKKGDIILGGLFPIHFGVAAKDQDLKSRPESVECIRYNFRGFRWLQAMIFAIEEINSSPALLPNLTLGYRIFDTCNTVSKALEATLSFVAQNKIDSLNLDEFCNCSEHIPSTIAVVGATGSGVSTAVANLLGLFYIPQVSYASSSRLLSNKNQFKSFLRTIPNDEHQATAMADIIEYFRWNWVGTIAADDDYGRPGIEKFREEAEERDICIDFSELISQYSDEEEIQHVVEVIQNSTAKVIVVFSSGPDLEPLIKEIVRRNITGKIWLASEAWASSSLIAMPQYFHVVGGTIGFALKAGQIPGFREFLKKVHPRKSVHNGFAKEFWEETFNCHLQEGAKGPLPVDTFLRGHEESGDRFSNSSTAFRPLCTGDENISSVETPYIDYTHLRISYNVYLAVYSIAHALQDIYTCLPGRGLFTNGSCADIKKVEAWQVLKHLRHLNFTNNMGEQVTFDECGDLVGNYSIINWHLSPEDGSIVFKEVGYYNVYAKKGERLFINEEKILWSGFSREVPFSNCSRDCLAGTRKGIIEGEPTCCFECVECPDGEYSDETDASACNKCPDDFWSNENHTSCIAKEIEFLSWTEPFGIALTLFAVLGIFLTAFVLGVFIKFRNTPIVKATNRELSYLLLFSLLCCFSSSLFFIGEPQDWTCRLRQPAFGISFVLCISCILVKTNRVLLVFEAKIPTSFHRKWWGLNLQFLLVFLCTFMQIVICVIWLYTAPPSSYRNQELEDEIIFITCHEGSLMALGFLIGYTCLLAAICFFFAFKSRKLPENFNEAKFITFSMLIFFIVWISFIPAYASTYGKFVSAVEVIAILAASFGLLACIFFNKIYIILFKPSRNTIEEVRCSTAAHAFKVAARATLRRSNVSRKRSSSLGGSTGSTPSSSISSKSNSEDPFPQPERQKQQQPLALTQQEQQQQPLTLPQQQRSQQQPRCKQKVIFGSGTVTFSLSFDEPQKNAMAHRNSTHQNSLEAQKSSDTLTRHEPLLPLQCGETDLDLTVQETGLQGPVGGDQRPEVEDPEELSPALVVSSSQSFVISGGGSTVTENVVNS
- ASSAY INFO: In vitro cell assay in HEK-293 expressing the human calcium-sensing receptor (IP1 production)
- Assay type: cell-based
- CONDITION INFO: Table 5; IP1 production in HEK293 cells expressing human CaSR, eight concentrations in duplicate; read-out: EC50 in CaSR in vitro assay
Square brackets hold non-standard residues; d marks the D form. Peptide text beside a SMILES is read from it.
API: label(entry) gives condition met if the entry's EC50 is strictly smaller than 20 µM; on equality or larger values it gives condition not met.

Hello, I'm reviewing records and need to know if EC50 of CC(=O)N[C@H](CS)C(=O)N[C@H](CCCNC(=N)N)C(=O)N[C@H](CCCNC(=N)N)C(=O)N[C@H](CCCNC(=N)N)C(=O)N[C@H](CCCNC(=N)N)C(=O)N[C@H](CCCNC(=N)N)C(=O)N[C@H](CCCNC(=N)N)C(=O)N[C@H](CCCNC(=N)N)C(N)=O [SEQ ID NO: 7, Ac-crrrrrrr-NH2] (Ac-[dC][dR][dR][dR][dR][dR][dR][dR]-NH2) is below 20 µM. Could you check?
condition met

Could you please tell me whether EC50 recorded for CC(=O)N[C@H](CS)C(=O)N[C@H](C)C(=O)N[C@H](CCCNC(=N)N)C(=O)N[C@H](C)C(=O)N[C@H](CCCNC(=N)N)C(=O)N[C@H](CCCNC(=N)N)C(=O)N[C@H](CCCNC(=N)N)C(N)=O [SEQ ID NO: 15, Ac-cararrr-NH2] (Ac-[dC][dA][dR][dA][dR][dR][dR]-NH2) is less than 20 µM?
condition met

EC50 under 20 µM? Item: CC(=O)N[C@H](CS)C(=O)N[C@H](C)C(=O)N[C@H](CCCNC(=N)N)C(=O)N[C@H](CCCCN)C(=O)N[C@H](CCCNC(=N)N)C(=O)N[C@H](C)C(=O)N[C@H](CCCNC(=N)N)C(N)=O [SEQ ID NO: 73, Ac-carkrar-NH2] (Ac-[dC][dA][dR][dK][dR][dA][dR]-NH2)
condition not met

Is EC50 strictly under 20 µM for the entry CC(=O)N[C@H](CS)C(=O)N[C@H](CCCNC(=N)N)C(=O)N[C@H](CCCNC(=N)N)C(=O)N[C@H](CCCNC(=N)N)C(=O)N[C@H](CCCNC(=N)N)C(=O)N[C@H](CCCNC(=N)N)C(=O)N[C@H](CCCNC(=N)N)C(=O)N[C@H](CCCNC(=N)N)C(=O)N[C@H](CCCNC(=N)N)C(N)=O ?
condition met

For CC(=O)N[C@H](CSSCCC(=O)O)C(=O)N[C@H](C)C(=O)N[C@H](CCCNC(=N)N)C(=O)N[C@H](CCCNC(=N)N)C(=O)N[C@H](CCCNC(=N)N)C(=O)N[C@H](C)C(=O)N[C@H](CCCNC(=N)N)C(N)=O , is the recorded EC50 below the cut-off of 20 µM?
condition not met

I wonder whether CC(=O)N[C@H](CS)C(=O)N[C@H](Cc1ccc(O)cc1)C(=O)NCC(=O)N[C@H](CCCNC(=N)N)C(=O)N[C@H](CCCCN)C(=O)N[C@H](CCCCN)C(=O)N[C@H](CCCNC(=N)N)C(=O)N[C@H](CCCNC(=N)N)C(=O)N[C@H](CCC(N)=O)C(=O)N[C@H](CCCNC(=N)N)C(=O)N[C@H](CCCNC(=N)N)C(=O)N[C@H](CCCNC(=N)N)C(N)=O has EC50 below 20 µM. Can you tell?
condition met
